Selectivity overview
target under test: Opioid receptors; mu & kappa (Homo sapiens) (UniProt P41145+P35372)
Sequence (P35372 whole entry, looked up): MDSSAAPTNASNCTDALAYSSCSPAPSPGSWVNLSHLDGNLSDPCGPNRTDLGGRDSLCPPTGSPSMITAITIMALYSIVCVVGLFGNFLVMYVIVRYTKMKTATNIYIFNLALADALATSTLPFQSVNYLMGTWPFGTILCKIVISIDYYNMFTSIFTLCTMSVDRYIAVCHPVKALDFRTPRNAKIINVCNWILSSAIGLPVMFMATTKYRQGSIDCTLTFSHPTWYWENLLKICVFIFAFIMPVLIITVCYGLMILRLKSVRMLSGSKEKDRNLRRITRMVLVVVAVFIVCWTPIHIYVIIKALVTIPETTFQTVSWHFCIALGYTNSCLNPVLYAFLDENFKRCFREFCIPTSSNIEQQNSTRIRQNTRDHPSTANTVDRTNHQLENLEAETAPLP
Sequence (P41145 whole entry, looked up): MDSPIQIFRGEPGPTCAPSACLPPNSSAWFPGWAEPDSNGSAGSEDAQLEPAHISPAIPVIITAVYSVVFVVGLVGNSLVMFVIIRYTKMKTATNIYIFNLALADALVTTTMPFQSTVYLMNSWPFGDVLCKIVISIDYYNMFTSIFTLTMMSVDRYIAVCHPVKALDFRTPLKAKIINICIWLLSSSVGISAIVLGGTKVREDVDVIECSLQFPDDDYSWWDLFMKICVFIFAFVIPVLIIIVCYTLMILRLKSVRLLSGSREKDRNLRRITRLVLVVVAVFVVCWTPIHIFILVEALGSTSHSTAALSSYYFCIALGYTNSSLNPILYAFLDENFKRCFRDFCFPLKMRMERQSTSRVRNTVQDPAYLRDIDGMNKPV
assay overview: Selective inhibitory activity was determined against kappa & mu opioid receptor in chinese Hamster Ovary (CHO) cell membranes
Output: the number by itself.

Example entries begin here.
[
  {
    "smiles entry": "Oc1ccc2c(c1)[C@@]13CCCC[C@H]1[C@@H](C2)N(CCCCCCN1CC[C@]24CCCC[C@H]2[C@H]1Cc1ccc(O)cc14)CC3",
    "target under test": "Opioid receptors; mu & kappa (Homo sapiens) (UniProt P41145+P35372)",
    "number": 1
  },
  {
    "smiles entry": "COC(=O)CCCCCCCCC(=O)Oc1ccc2c(c1)[C@@]13CCCC[C@H]1[C@@H](C2)N(CC1CCC1)CC3",
    "target under test": "Opioid receptors; mu & kappa (Homo sapiens) (UniProt P41145+P35372)",
    "number": 3
  },
  {
    "smiles entry": "O=C(Oc1ccc2c(c1)[C@@]13CCCC[C@H]1[C@@H](C2)N(CC1CCC1)CC3)[C@H]1C[C@H]1C(=O)Oc1ccc2c(c1)[C@@]13CCCC[C@H]1[C@@H](C2)N(CC1CCC1)CC3",
    "target under test": "Opioid receptors; mu & kappa (Homo sapiens) (UniProt P41145+P35372)",
    "number": 2
  }
]

Req: Give me measured Selectivity, please, for this compound: O=C(CCCCCCC(=O)Oc1ccc2c(c1)[C@@]13CCCC[C@H]1[C@@H](C2)N(CC1CCC1)CC3)Oc1ccc2c(c1)[C@@]13CCCC[C@H]1[C@@H](C2)N(CC1CCC1)CC3
Resp: 1

Req: Give me measured Selectivity, please, for this compound: Oc1ccc2c(c1)[C@@]13CCCC[C@H]1[C@@H](C2)N(CCCN1CC[C@]24CCCC[C@H]2[C@H]1Cc1ccc(O)cc14)CC3
Resp: 2

Req: Give me measured Selectivity, please, for this compound: O=C(CCCCCCCC(=O)Oc1ccc2c(c1)[C@@]13CCCC[C@H]1[C@@H](C2)N(CC1CCC1)CC3)Oc1ccc2c(c1)[C@@]13CCCC[C@H]1[C@@H](C2)N(CC1CCC1)CC3
Resp: 2
